- tested target: PARP-1 enzyme (Homo sapiens, UniProt P09874)
- Construct: purchased Trevigen, Inc. 4676-096-K
- Sequence (P09874 whole entry): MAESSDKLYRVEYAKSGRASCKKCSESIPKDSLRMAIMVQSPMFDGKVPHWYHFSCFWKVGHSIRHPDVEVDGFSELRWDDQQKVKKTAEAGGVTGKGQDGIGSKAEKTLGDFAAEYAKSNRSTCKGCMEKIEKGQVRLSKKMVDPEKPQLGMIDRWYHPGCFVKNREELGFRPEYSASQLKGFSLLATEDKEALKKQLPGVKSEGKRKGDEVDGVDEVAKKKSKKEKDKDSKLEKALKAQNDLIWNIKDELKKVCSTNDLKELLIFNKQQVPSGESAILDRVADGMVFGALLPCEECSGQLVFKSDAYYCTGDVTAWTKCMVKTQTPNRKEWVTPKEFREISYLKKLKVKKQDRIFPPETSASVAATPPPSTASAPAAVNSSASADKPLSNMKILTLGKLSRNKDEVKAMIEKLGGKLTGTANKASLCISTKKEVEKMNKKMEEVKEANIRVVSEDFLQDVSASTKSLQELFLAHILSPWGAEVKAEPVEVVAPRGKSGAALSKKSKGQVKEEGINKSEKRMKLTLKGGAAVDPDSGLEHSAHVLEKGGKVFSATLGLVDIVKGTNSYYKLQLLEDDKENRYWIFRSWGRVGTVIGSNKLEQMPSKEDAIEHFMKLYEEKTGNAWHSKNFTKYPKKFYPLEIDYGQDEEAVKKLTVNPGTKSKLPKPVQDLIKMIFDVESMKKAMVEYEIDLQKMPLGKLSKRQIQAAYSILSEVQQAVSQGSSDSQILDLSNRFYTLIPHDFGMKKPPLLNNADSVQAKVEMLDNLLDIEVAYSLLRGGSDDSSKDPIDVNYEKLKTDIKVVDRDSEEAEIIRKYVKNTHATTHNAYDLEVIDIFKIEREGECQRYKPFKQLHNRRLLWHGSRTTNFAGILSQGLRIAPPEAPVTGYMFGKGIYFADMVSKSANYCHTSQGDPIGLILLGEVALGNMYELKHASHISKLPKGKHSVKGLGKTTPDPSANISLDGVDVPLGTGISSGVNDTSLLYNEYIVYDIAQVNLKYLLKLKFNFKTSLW
- experiment summary: PARP-1 enzymatic activity assay (Trevigen 96-well kit 4676-096-K)
- Format: biochemical
- experimental setup: 0.5 unit PARP-1, histone pre-coated plate, 60 min at room temperature; read-out: IC50 (nM), inhibitory effect on PARP-1 enzymatic activity
outcome measure: IC50 (nM)

- O=C(c1cc(Cn2c(=O)[nH]c(=O)c3ccccc32)ccc1F)N1CCN(c2ncccn2)CC1 [Example 25]: 0.21
- O=C(c1cccc(Cn2c(=O)[nH]c(=O)c3c(F)cccc32)c1)N1CCN(c2ncccn2)CC1 [Example 127]: 0.37
- O=C(c1cc(Cn2c(=O)[nH]c(=O)c3cc(F)ccc32)ccc1F)N1CCN(c2ncccn2)CC1 [Example 144]: 1.15
- O=C(c1cccc(Cn2c(=O)[nH]c(=O)c3cc(F)ccc32)c1)N1CCN(c2ncccn2)CC1 [Example 139]: 1.3
- O=C(c1ccccc1)N1CCN(C(=O)c2cccc(Cn3c(=O)[nH]c(=O)c4ccccc43)c2)CC1 [Example 8]: 5.3
- O=C(c1cc(Cn2c(=O)[nH]c(=O)c3c(F)cccc32)ccc1F)N1CCN(c2ncccn2)CC1 [Example 132]: 1.19
